Where do the numbers come from? From patent US20180024136A1.

- test summary: Spectroscopic properties of CF library (absorbance, emission, quantum yield, extinction coefficient)
- Format: physicochemical
- settings: 100 μM in ethanol
Give Em (nm) for every item shown.
Express your answer in nm, writing the number without its unit.

The compound listed as CCCCCCCCCCCCCCCCCCN(C)C(=O)c1ccc(-c2c3cc(Cl)c(=O)cc-3oc3cc(O)c(Cl)cc23)cc1 [CF-H11] has a reported Em (nm) of 552

The compound listed as O=C(NC1CCCC1)c1ccc(-c2c3cc(Cl)c(=O)cc-3oc3cc(O)c(Cl)cc23)cc1 [CF-E5] has a reported Em (nm) of 556

The compound listed as CCCCNC(=O)c1ccc(-c2c3cc(Cl)c(=O)cc-3oc3cc(O)c(Cl)cc23)cc1 [CF-G7] has a reported Em (nm) of 559

The compound listed as COc1cccc(CCNC(=O)c2ccc(-c3c4cc(Cl)c(=O)cc-4oc4cc(O)c(Cl)cc34)cc2)c1OC [CF-E7] has a reported Em (nm) of 557

The compound listed as CC(C)NC(=O)c1ccc(-c2c3cc(Cl)c(=O)cc-3oc3cc(O)c(Cl)cc23)cc1 [CF-B8] has a reported Em (nm) of 559

The compound listed as CCCCC(CC)COCCCNC(=O)c1ccc(-c2c3cc(Cl)c(=O)cc-3oc3cc(O)c(Cl)cc23)cc1 (stereo not drawn) [CF-B5] has a reported Em (nm) of 559

The compound listed as CCCC(C)NC(=O)c1ccc(-c2c3cc(Cl)c(=O)cc-3oc3cc(O)c(Cl)cc23)cc1 (stereo not drawn) [CF-G5] has a reported Em (nm) of 557

The compound listed as CCC(NC(=O)c1ccc(-c2c3cc(Cl)c(=O)cc-3oc3cc(O)c(Cl)cc23)cc1)c1ccccc1 (stereo not drawn) [CF-A3] has a reported Em (nm) of 559

The compound listed as COCCN(CCOC)C(=O)c1ccc(-c2c3cc(Cl)c(=O)cc-3oc3cc(O)c(Cl)cc23)cc1 [CF-H3] has a reported Em (nm) of 553

The compound listed as O=C(NCc1ccc(OC(F)(F)F)cc1)c1ccc(-c2c3cc(Cl)c(=O)cc-3oc3cc(O)c(Cl)cc23)cc1 [CF-A8] has a reported Em (nm) of 558

The compound listed as CCCCCCCCNC(=O)c1ccc(-c2c3cc(Cl)c(=O)cc-3oc3cc(O)c(Cl)cc23)cc1 [CF-C3] has a reported Em (nm) of 559

The compound listed as O=C(NCCc1ccccc1Cl)c1ccc(-c2c3cc(Cl)c(=O)cc-3oc3cc(O)c(Cl)cc23)cc1 [CF-H8] has a reported Em (nm) of 556

The compound listed as O=C(NC1CCCCCC1)c1ccc(-c2c3cc(Cl)c(=O)cc-3oc3cc(O)c(Cl)cc23)cc1 [CF-C9] has a reported Em (nm) of 558

The compound listed as O=C(NCc1c(F)cccc1F)c1ccc(-c2c3cc(Cl)c(=O)cc-3oc3cc(O)c(Cl)cc23)cc1 [CF-A7] has a reported Em (nm) of 560

The compound listed as COc1ccc(CCNC(=O)c2ccc(-c3c4cc(Cl)c(=O)cc-4oc4cc(O)c(Cl)cc34)cc2)cc1OC [CF-B10] has a reported Em (nm) of 559
